# Test system: U-251
# protocol description: NCI tumour cell line growth inhibition, 48 h
Activity calls are given as the source filed them. Rule as the data show it: active = GI50 up to about 1.1 µM and inactive = higher.
Pick from 1 (active), -1 (inactive) when you respond.

Worked set:
In [3]: df
Out[3]:
                                   compound  category_label
0    O=C1Oc2ccccc2C(=O)/C1=C\NC(=S)c1ccncc1              -1
1  CC1OC1C(=O)P(=O)(O)O (centres undefined)              -1
2  Cc1ccc(S(=O)(=O)N(CC(O)c2ccccc2)c2ccccc2F)cc1 (centres undefined)              -1
3    O=C(NC1CCCCC1)NC12CC3CC(CC(F)(C3)C1)C2              -1
4  Cc1ccc(C(=O)/C=C(\O)C(=O)NN=C(c2ccccc2)c2ccccc2)cc1              -1

Call for entry CC1(CO)COS(=O)OC1 (centres undefined) :
-1

Tell me the recorded outcome of this test for O=C1c2ccccc2C(=O)c2c(NC3CCCCC3)ccc(Nc3ccc(S(=O)(=O)O)cc3)c21 .
-1

Recorded test outcome, item O=c1c2c(oc3ccccc13)-c1ccccc1OC2
-1

Could you kindly confirm the outcome this assay logged for O=C1NC(c2cccc3ccccc23)Nc2ccccc21 (centres undefined) ?
1

---

# Test system: DLD-1
# protocol description: NCI tumour cell line growth inhibition, 48 h
Calls of active or inactive are those of the source. Rule as the data show it: active = GI50 up to about 1.1 µM and inactive = higher.
Please respond with reported GI50 for every item in the list.

Hey, quick one: what's GI50 for each of these?
1. COC(=O)C1CCC(=O)C(Sc2ccccc2)C1 (stereo unspecified)
2. COC(=O)C(C(=O)C(=O)Nc1ccc(C)cc1C)c1nc2ccc([N+](=O)[O-])cc2nc1O (stereo unspecified)

> 100 µM (inactive)
> 100 µM (inactive)

---

# Tested on: LXFL 529
# protocol description: NCI tumour cell line growth inhibition, 48 h
Activity calls are given as the source filed them. No stated cut-off is given here; in the data, active = GI50 up to about 1.1 µM and inactive = higher.
So I've got a bunch of molecules here, and I need their GI50 values.

Recorded GI50, per entry:
>>> df
                                   molecule  measured_quantity          measurement
0  Cc1ccc(/N=N/c2ccc(N(CCC#N)CCC#N)cc2C)c(Br)c1               GI50     20 µM (inactive)
1  CCCCCCCCCCCCn1[nH]c(C)c(C(=S)SCCCCCCCC)c1=O               GI50   53.2 µM (inactive)
2  CCCCCCC1NN(C(C)=O)C(CCCCCC)NN1C(C)=O (stereo unspecified)               GI50  > 100 µM (inactive)
3     CNC(C)Cc1ccccc1O (stereo unspecified)               GI50  > 100 µM (inactive)

Would you be so kind as to report GI50 for each listed record?
1. COc1cc2ccnc3c2c(c1OC)CC1CC(O)C(OC)CC31 (stereo unspecified)
2. NC(=O)N/N=C(\CC1OC(=O)c2ccccc21)c1ccco1 (stereo unspecified)

1. 36.6 µM (inactive)
2. > 100 µM (inactive)

---

So I've got a bunch of molecules here, and I need their GI50 values.
# Test system: NCI-H460
# protocol description: NCI tumour cell line growth inhibition, 48 h
The source made the active and inactive calls. No stated cut-off is given here; in the data, active = GI50 up to about 1.1 µM and inactive = higher.

Some solved entries appear below for comparison.
                                chem_smiles          measurement
0       CS/C(=N\C#N)S/C=C/C(=O)c1ccc(Cl)cc1  > 100 µM (inactive)
1  N#CCCN(CCN(CCC#N)C(=O)Nc1ccccc1)C(=O)Nc1ccccc1   68.5 µM (inactive)
2  CC(C)(C)OC(=O)N1CCC2(CC1)C(=O)NCN2c1ccccc1  > 100 µM (inactive)

Now consider the entry below.
Recorded GI50 for CCOC(=O)/C(C#N)=C1/Sc2c(ncn(/N=C/c3ccc(OC)cc3)c2=O)N1c1ccccc1 with NCI-H460, please?
28.9 µM (inactive)
